Tested on: mutant tumor protein p53 (GST-tagged), Homo sapiens
Experiment summary: binders of human mutant p53, primary screen, biochemical, small molecule microarray, anti-GST fluorescence (AID 624136)
Condition info: small molecule microarray binding
The whole screen tested about 17,000 compounds, of which about 75 (0.4%) were called active. Only a selection was taken, and actives are over-represented in it overall.
Property measured: outcome

In the examples that follow, each entry is paired with its recorded outcome.
Compound: C[C@H]1CN([C@@H](C)CO)C(=O)Cc2cc(NC(=O)c3ccncc3)ccc2O[C@@H]1CN(C)C(=O)Nc1ccccc1
Property measured: outcome
Result: inactive
//
Compound: C[C@@H]1CCCCO[C@H](CN(C)Cc2ccccc2)[C@@H](C)CN([C@H](C)CO)C(=O)c2cc(NS(C)(=O)=O)ccc2O1
Property measured: outcome
Result: inactive
//
Compound: C[C@H](CO)N1C[C@H](C)[C@H](CN(C)C(=O)Nc2ccc(F)cc2)Oc2ccc(NC(=O)Cc3cn(C)c4ccccc34)cc2CC1=O
Property measured: outcome
Result: inactive
//
Compound: CC(C)NC(=O)Nc1ccc2c(c1)C(=O)N([C@H](C)CO)C[C@H](C)[C@@H](CN(C)C(=O)CCCN(C)C)OCCCC[C@@H](C)O2
Property measured: outcome
Result: inactive
//
Compound: C[C@@H]1CN([C@@H](C)CO)C(=O)Cc2cc(NC(=O)Nc3ccc4c(c3)OCO4)ccc2O[C@@H]1CN(C)C(=O)Nc1ccc2c(c1)OCO2
Property measured: outcome
Result: inactive

Form field: reported outcome of `C[C@@H]1CN([C@@H](C)CO)C(=O)Cc2cc(NC(=O)Nc3ccc(F)cc3)ccc2O[C@@H]1CN(C)C(=O)NC1CCCCC1`
inactive

Request: `COc1cc(CCC(=O)O)oc(=O)c1`
inactive

Request: `CNC[C@H]1Oc2ccc(NC(=O)Nc3ccc4c(c3)OCO4)cc2CC(=O)N([C@H](C)CO)C[C@H]1C`
inactive
